target_of_assay: T1, P6-AA-12HAA-H
T1 chain: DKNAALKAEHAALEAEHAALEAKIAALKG
experiment_summary: two-hybrid library CCmax;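 note: natural log of median RNA to DNA barcode read ratio; higher means stronger binding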
condition: mean of both orientations
measurement_label: interaction score
Give only the figure.

Form field: reported interaction score of DENAALEAKNAALKAKNAALKAEIAALEG [P5-AA-1HAA-N]
0.901

Record: DENAALEAKVAALKAKVAALKAEIAALEG [P5-AA-12HAA-V]
1.34

Record: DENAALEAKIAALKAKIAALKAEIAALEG [4H1385-AA]
1.75

Record: DENAALEAKDAALKAKDAALKAEIAALEG [P5-AA-12HAA-D]
-1.57

Record: DENAALEAKHAALKAKHAALKAEIAALEG [P5-AA-12HAA-H]
-1.49

Record: DENAALEAKKAALKAKKAALKAEIAALEG [P5-AA-12HAA-K]
-1.46

Record: DENAALEAKAAALKAKAAALKAEIAALEG [P5-AA-12HAA-A]
-1.86
